Target: T1, human IL-23 (human, UniProt Q9NPF7 20-189; P29460 23-328)
T1 construct: Heterodimer of p19 and p40; also called hIL-23
T1 sequence 1: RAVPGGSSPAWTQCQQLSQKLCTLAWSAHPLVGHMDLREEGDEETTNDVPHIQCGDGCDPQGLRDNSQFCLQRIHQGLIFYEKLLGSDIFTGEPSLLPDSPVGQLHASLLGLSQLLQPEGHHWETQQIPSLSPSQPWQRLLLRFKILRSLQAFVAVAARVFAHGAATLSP
T1 sequence 2: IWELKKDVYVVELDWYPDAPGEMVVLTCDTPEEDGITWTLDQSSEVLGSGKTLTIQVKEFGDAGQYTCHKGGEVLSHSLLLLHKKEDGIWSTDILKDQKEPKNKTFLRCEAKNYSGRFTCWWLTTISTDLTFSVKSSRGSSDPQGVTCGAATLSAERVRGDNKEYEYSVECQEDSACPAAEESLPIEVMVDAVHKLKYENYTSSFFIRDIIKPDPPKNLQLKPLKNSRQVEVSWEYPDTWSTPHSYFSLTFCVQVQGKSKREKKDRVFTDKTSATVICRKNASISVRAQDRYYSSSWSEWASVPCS
Assay: SPR Biacore T100, mAb from HEK supernatant captured on anti-human IgG, human IL-23 64-0.062 nM
Give measured koff for each item. Keep answers brief.
Express it in s⁻¹; write the number only.

Could you tell me which koff is on file for A6M20 (antibody, human IgG1, kappa, V domains shown) VH: QVQLVQSGAEVKKPGSSVKVSCKASGYTFTSYGITWVRQAPGQGLEWMGENYPRSGNTYYNEKFKGRVTITADKSTSTAYMELSSLRSEDTAVYYCARVEFISTVVAPYYYALDYWGQGTLVTVSS VL: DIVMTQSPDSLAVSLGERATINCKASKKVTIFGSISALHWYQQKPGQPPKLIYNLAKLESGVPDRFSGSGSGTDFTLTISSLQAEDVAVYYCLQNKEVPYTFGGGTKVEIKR ?
0.000205

Now consider A5M20 (antibody, human IgG1, kappa, V domains shown) VH: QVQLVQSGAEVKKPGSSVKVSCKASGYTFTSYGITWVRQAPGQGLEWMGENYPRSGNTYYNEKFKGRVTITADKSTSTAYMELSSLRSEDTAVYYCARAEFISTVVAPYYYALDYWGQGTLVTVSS VL: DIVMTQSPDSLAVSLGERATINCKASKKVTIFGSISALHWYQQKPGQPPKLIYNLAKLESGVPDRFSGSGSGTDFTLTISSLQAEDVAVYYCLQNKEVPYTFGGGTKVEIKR .
0.000159

Reference for the values: patent US20120128689A1
